tested on: K562; test: Cytotoxicity against human K562 cells assessed as inhibition of cell proliferation incubated for 48 hrs by MTT assay; assay type: functional, cell-based; details: K562, 48 h
parameter: IC50

**Q:** Request the reported IC50 associated with "COC(C)(C)CCc1c(O)c(O)cc2oc3c4c(c(CC=C(C)C)c(O)c3c(=O)c12)OC(C)(C)C=C4"
**A:** > 10 µM
